Reference source: PubChem BioAssay (EPA / NIEHS)

Read-out: Tissue plasminogen activator (tPA), PLAT (gene 5327)
Assay: BSK_BE3C_tPA: BioMAP Diversity Plus: BE3C Assay for Tissue plasminogen activator (tPA) Biomarker Activity (AID 2283041)
Conditions: primary human bronchial epithelial cells; actives raise or lower the signal
Activity calls are given as the source filed them. The calls were made as follows: active = hit-call score of the fitted dose curve at least 0.9, where 1 is the maximum; inactive = score below 0.9.
Possible outcomes: active, inactive

>>> df
                                   molecule  assigned_category
0          CCOC(=O)CC(O)(CC(=O)OCC)C(=O)OCC           inactive
1                        Cc1cc(C)c(O)c(C)c1           inactive
2  N#C[C@@H]1CC(F)(F)CN1C(=O)CNC1CC2CCC(C1)N2c1ncccn1 (stereo not given in full)           inactive
3  CC(C)(C)CC(C)(C)c1ccc(O)c(-n2nc3ccccc3n2)c1           inactive
4                 CCCCCCCCCCCCCC[N+](C)(C)C             active

---

Target: Hepatocyte nuclear factor 6 (Homo sapiens)
Assay: ATG_HNF6_CIS: Attagene CIS-FACTORIAL HepG2 Assay for human Hepatocyte Nuclear Factor 6 (HNF6) (AID 2282952)
Conditions: HepG2 Attagene cis-factorial HNF6 reporter transcription; actives raise or lower the signal
Active and inactive are the calls of the source. How the source made its calls: active means hit-call score of the fitted dose curve at least 0.9, where 1 is the maximum; inactive means score below 0.9.
Possible outcomes: active, inactive

>>> print(df.to_string())
                                    molecule  assigned_category
 0  CCc1ccc(CCOc2ccc(CC3SC(=O)NC3=O)cc2)nc1 (stereo not drawn)           inactive
 1  C=C(C)C(=O)OCCC(F)(F)C(F)(F)C(F)(F)C(F)(F)C(F)(F)C(F)(F)F           inactive
 2  CCc1nn(C2CCCCC2)c2cc(C3(C#N)CCC(C(=O)O)CC3)ccc12 (stereo not drawn)           inactive
 3  CC(C)(C)CC(C)(C)c1ccc(O)c(-n2nc3ccccc3n2)c1           inactive
 4  Cc1cc(CCN2CCN(c3nsc4ccccc34)CC2)cc2c1NC(=O)CC2(C)C           inactive
 5          CCOC(=O)CC(O)(CC(=O)OCC)C(=O)OCC           inactive
 6   O=C(O)c1ccccc1C(c1ccc(O)cc1)c1ccc(O)cc1           inactive
 7  CCCCC(CC)COC(=O)CCCCC(=O)OCC(CC)CCCC (stereo not drawn)           inactive
 8                  Cc1ccc(S(=O)(=O)O)c(C)c1           inactive
 9                                  CN(C)C=O           inactive
10  O=C1OC2(c3ccccc31)c1cc(Br)c(O)c(Br)c1Oc1c2cc(Br)c(O)c1Br           inactive
11  CN1CCN(c2ccccc2/C=C2\SCCN(c3ccc(Cl)c(Cl)c3)C2=O)CC1           inactive
12  CC(=O)NC1(c2cccc(F)c2)CCN(CC[C@@]2(c3ccc(Cl)c(Cl)c3)CN(c3ccccc3)C(=O)CO2)CC1           inactive
13               CC(C)(C)c1cccc(C(C)(C)C)c1O           inactive
14                        COC(=O)CCCCC(=O)OC           inactive
15    CC(C)CCCCCCOC(=O)CCCCC(=O)OCCCCCCC(C)C           inactive
16             CC(C)(C)c1ccc(O)c(C(C)(C)C)c1           inactive
17                            CCCCCCCCC(=O)O           inactive
18                           CC(=O)CC(C)(C)O           inactive
19            CCCCCCCCCCCCc1ccccc1S(=O)(=O)O           inactive
20  O=C(O)Cc1cc(I)c(Oc2cc(I)c(O)c(I)c2)c(I)c1           inactive
21  Cc1oc(-c2ccccc2)nc1CCOc1ccc(C[C@H](Nc2ccccc2C(=O)c2ccccc2)C(=O)O)cc1           inactive
22   CC[C@H](C)[C@@H](C(=O)O)n1sc2ccccc2c1=O           inactive
23                        Nc1cccc2c(N)cccc12           inactive
24  C[C@@H]1C[C@H]2[C@@H]3CCC4=CC(=O)C=C[C@]4(C)[C@@]3(F)[C@@H](O)C[C@]2(C)[C@@]1(O)C(=O)COP(=O)(O)O           inactive
25                     CCCCCCCCCCCCN1CCCC1=O           inactive
26  NC(=O)N1C(=O)C(C(=O)c2cc(Cl)cs2)c2cc(F)c(Cl)cc21 (stereo not drawn)           inactive
27  CCN(CC)CCNc1ccc(CNC=O)c2sc3ccc(OC)cc3c(=O)c12             active
28  NCC(F)(F)C(F)(F)C(F)(F)C(F)(F)C(F)(F)C(F)(F)C(F)(F)F           inactive
29   CC(C)(C)c1cc(C(C)(C)C)c(O)c(C(C)(C)C)c1           inactive
30  O=C(/C=C/c1ccc(O)cc1)CC(=O)/C=C/c1ccc(O)cc1           inactive
31  CC[C@H](c1ccc(O)cc1)[C@@H](CC)c1ccc(O)cc1           inactive
32                CC(O)CO (stereo not drawn)           inactive
33                                 OC1CCCCC1           inactive
34            CC(O)C(=O)O (stereo not drawn)           inactive
35  CC1=C(/C=C/C(C)=C/C=C/C(C)=C/C(=O)O)C(C)(C)CCC1           inactive
36                     Oc1cc2ccccc2c2ccccc12           inactive
37         O=C(OCCOCCOC(=O)c1ccccc1)c1ccccc1           inactive
38                      CN1CCC[C@H]1c1cccnc1           inactive
39  FC(F)(I)C(F)(F)C(F)(F)C(F)(F)C(F)(F)C(F)(F)I           inactive
40                                  CCCCOCCO           inactive
41                              CCCCCCC(=O)O           inactive
42                             CCCCCCCC(=O)O           inactive
